tested on: Trypanosoma brucei rhodesiense; assay: Trypanocidal activity against Trypanosoma brucei rhodesiense STIB 900 bloodstream form after 72 hrs by resazurin assay; assay type: functional, organism-based; conditions: STIB 900, 72 h
quantity: pIC50
Please note pIC50 is a logarithmic value: minus log10 of concentration in mol/L. Answer with that number alone.

For orientation, consider the following solved cases.
molecule	recorded measurement
C1=C(c2cc3ccccc3o2)C2CCN1CC2	4.77
C(=C1CN2CCC1CC2)c1ccc(C2OCCO2)cc1	4.90
C(=C1/CN2CCC1CC2)/c1ccc(C2OCCO2)cc1	5.26

I'm curious: which pIC50 was measured for CCOc1ccc(C#CC2(O)CN3CCC2CC3)cc1 (stereo not drawn) tested on Trypanosoma brucei rhodesiense?
5.27

I'm curious: which pIC50 was measured for c1ccc(CC2CN3CCC2CC3)cc1 (stereo not drawn) tested on Trypanosoma brucei rhodesiense?
4.22

I'm curious: which pIC50 was measured for OC[C@H]1CC2CCN1C[C@@H]2C#Cc1ccc(OCc2ccccc2)cc1 (stereo partly drawn) tested on Trypanosoma brucei rhodesiense?
5.92

I'm curious: which pIC50 was measured for OC1(C#Cc2ccc(OCc3ccccc3)cc2)CN2CCC1CC2 (stereo not drawn) tested on Trypanosoma brucei rhodesiense?
5.72

I'm curious: which pIC50 was measured for OC[C@@H]1CC2CCN1C[C@@H]2C#Cc1ccccc1 (stereo partly drawn) tested on Trypanosoma brucei rhodesiense?
4.89

###

test system: Leishmania amazonensis; assay: Inhibition of sterol biosynthesis in Leishmania mexicana amazonensis promastigotes assessed as reduction in endogenous cholesta-7,24-dien-3beta-ol level at 10 uM after 96 hrs by gas-liquid chromatography; format: functional; set-up: scale not given: the % may be the effect or the level left
quantity: Activity (%)
Unit % implied. Number only.

molecule	Activity, %
CCOC(=O)c1ccc(C#C[C@H]2CN3CCC2C[C@H]3CO)cc1 (some centres undefined)	3.3

Name the recorded Activity for CCOC(=O)Cc1ccc(C#C[C@H]2CN3CCC2C[C@@H]3CO)cc1 (some centres undefined) .
3.3

Name the recorded Activity for C(=C1CN2CCC1CC2)c1ccc(C2OCCO2)cc1 .
6.7

Name the recorded Activity for C(=C1/CN2CCC1CC2)/c1ccccc1 .
2.8

###

tested on: Trypanosoma brucei rhodesiense; test: Trypanocidal activity against Trypanosoma brucei rhodesiense STIB 900 bloodstream form after 72 hrs by resazurin assay; type: functional, organism-based; settings: STIB 900, 72 h
Item-by-item account of IC50
Unit nM implied. Number only.

For orientation, consider the following solved cases.
molecule	quantity	recorded measurement
c1ccc(-c2ccc(CC3CN4CCC3CC4)cc2)cc1 (stereo unspecified)	IC50	700
C(=C1/CN2CCC1CC2)/c1ccc(-c2ccccc2)cc1	IC50	700
OC[C@@H]1CC2CCN1C[C@@H]2C#Cc1ccc(OCc2ccccc2)cc1 (stereo partly specified)	IC50	1200
Oc1ccc(C#CC2(O)CN3CCC2CC3)cc1 (stereo unspecified)	IC50	53000
Cc1cc(C)cc(C#CC2(O)CN3CCC2CC3)c1 (stereo unspecified)	IC50	9200

Now for the molecule whose IC50 we want.
Name the recorded IC50 for CCOC(=O)c1ccc(C#C[C@H]2CN3CCC2C[C@H]3CO)cc1 (stereo partly specified) .
1700

###

Item-by-item account of IC50
tested on: Leishmania donovani; assay: Antileishmanial activity against Leishmania donovani MHOM/ET/67/L82 axenic amastigotes after 72 hrs by resazurin assay; format: functional, organism-based; conditions: MHOM/ET/67/L82, 72 h

compound	IC50
OC[C@H]1CC2CCN1C[C@@H]2C#Cc1ccccc1 (stereo not given in full)	> 124 µM
O=Cc1ccc(/C=C2\CN3CCC2CC3)cc1	> 132 µM
C(=C1/CN2CCC1CC2)/c1ccccc1	> 151 µM
c1ccc2cc(CC3CN4CCC3CC4)ccc2c1 (stereo not given)	> 119 µM
OC[C@@H]1CC2CCN1C[C@@H]2C#Cc1ccccc1 (stereo not given in full)	> 124 µM

Name the recorded IC50 for O=C(O)c1ccc(C#CC2(O)CN3CCC2CC3)cc1 (stereo not given) .
> 111 µM

Name the recorded IC50 for CCOC(=O)Cc1ccc(C#C[C@H]2CN3CCC2C[C@H]3CO)cc1 (stereo not given in full) .
> 92 µM

Name the recorded IC50 for c1ccc(-c2ccc(CC3CN4CCC3CC4)cc2)cc1 (stereo not given) .
> 108 µM

Name the recorded IC50 for c1ccc(CC2CN3CCC2CC3)cc1 (stereo not given) .
> 149 µM

Name the recorded IC50 for CCOC(=O)c1ccc(C#C[C@H]2CN3CCC2C[C@@H]3CO)cc1 (stereo not given in full) .
> 96 µM

###

tested on: L6; experiment: Cytotoxicity against rat L6 cells after 72 hrs by resazurin assay; format: cell-based; conditions: L6, 72 h
pIC50: −log10 of the molar value.
Item-by-item account of pIC50

For orientation, consider the following solved cases.
compound	study system	pIC50
COC(=O)c1ccc(N)c(C#CC2(O)CN3CCC2CC3)c1 (stereo unspecified)	L6	< 3.52
O=C(O)c1ccc(C#CC2(O)CN3CCC2CC3)cc1 (stereo unspecified)	L6	< 3.48
CCOC(=O)Cc1ccc(C#CC2(O)CN3CCC2CC3)cc1 (stereo unspecified)	L6	< 3.54
CCOc1ccc(C#CC2(O)CN3CCC2CC3)cc1 (stereo unspecified)	L6	< 3.48
Oc1ccc(C#CC2(O)CN3CCC2CC3)cc1 (stereo unspecified)	L6	< 3.43
COc1ccc(C#CC2(O)CN3CCC2CC3)cc1 (stereo unspecified)	L6	< 3.46
OC1(C#Cc2cccnc2)CN2CCC1CC2 (stereo unspecified)	L6	< 3.40
Cc1ccc(N)cc1C#CC1(O)CN2CCC1CC2 (stereo unspecified)	L6	< 3.45

I'm curious: which pIC50 was measured for Nc1ccc(C#CC2(O)CN3CCC2CC3)cn1 (stereo unspecified) tested on L6?
< 3.43

I'm curious: which pIC50 was measured for OC1(C#Cc2ccc3cc[nH]c3c2)CN2CCC1CC2 (stereo unspecified) tested on L6?
< 3.47

I'm curious: which pIC50 was measured for O=Cc1ccc(/C=C2\CN3CCC2CC3)cc1 tested on L6?
< 3.40

# credit: ChEMBL document CHEMBL1137637
